Test system: BaF2 BCR-Ab1 (Mouse pro-B-cell transformed with BCR-Ab1 fusion)
Test: Cellular Proliferation Assay, cell line H
Type: cell-based
Settings: BaF2 BCR-Ab1, 72 hours, CelltiterBlue, read-out: Cell Line H antiproliferative IC50
assay.metric: IC50

Request: What measured IC50 goes with CC(C)(CN)COc1cccc2ccc(-c3nnc4ccccn34)nc12 ?
Response: < 2 µM

Request: IC50 for N[C@H]1CC[C@H](Oc2cccc3ccc(-c4nnc5ccccn45)nc23)CC1 ?
Response: < 2 µM

Request: Data request, read-out IC50, for c1cc(OCC2CCCNC2)c2nc(-c3nnc4ccccn34)ccc2c1 (stereo not shown)
Response: < 5 µM

Request: IC50 for c1cc(NC2CCNCC2)c2nc(-c3nnc4ccccn34)ccc2c1 ?
Response: < 10 µM

Data origin: patent US8575145B2
